Values were extracted from patent US20250282868A1.

test system: T1, mouse TREM2 (mouse, UniProt Q99NH8 19-227)
T1 construct: whole, on cells
T1 sequence (looked up): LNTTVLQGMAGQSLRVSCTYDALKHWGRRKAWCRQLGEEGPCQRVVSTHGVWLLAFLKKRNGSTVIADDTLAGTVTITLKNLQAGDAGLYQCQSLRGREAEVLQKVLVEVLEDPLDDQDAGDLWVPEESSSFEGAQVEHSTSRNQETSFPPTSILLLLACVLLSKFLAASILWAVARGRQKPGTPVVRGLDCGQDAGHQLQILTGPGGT
test protocol: MFI on CT26 cells over-expressing mouse TREM2 and DAP12
Binding to CT26-TREM2 MFI less than 2000 MFI is y; Binding to CT26-TREM2 MFI greater than or equal to 2000 MFI is n.

Is the reported Binding to CT26-TREM2 MFI for PN-37012 (antibody, V domains shown, benchmark anti-TREM2 antibody from US20190309064) VH: EVQLLESGGGLVQPGGSLRLSCAASGFTFSNYYMAWVRQAPGKGLEWVSSLTNSGGSTYYADSVKGRFTISRDNSKNTLYLQMNSLRAEDTAVYYCTREWAGSGYFDYWGQGTLVTVSS VL: DIQMTQSPSSLSASVGDRVTITCKASQNVGNNLAWYQQKPGKAPKLLIYYTSNRFTGVPSRFSGSGSGTDFTLTISSLQPEDFATYYCQRIYNSPWTFGQGTKLEIK strictly below 2000 MFI? n

Please let me know if EOS006165 (antibody, V domains shown) VH: QVQLVQSGAEVKKPGSSVKVSCKASGGTFSSYAISWVRQAPGQGLEWMGGIIPISGTANYAQKFQGRVTITADESTSTAYMELSSLRSEDTAVYYCARTQEYTAFDIWGQGTMVTVSS VL: EIVLTQSPATLSLSPGERATLSCRASQSVSSYLAWFQQKPGQAPRLLIYDASNRATGIPARFSGSGSGTDFTLTISSLEPEDFAVYYCQQDYHWPITFGGGTKVEIK shows Binding to CT26-TREM2 MFI below 2000 MFI. y

Consider the binder EOS006172 (antibody, V domains shown) VH: QVQLVQSGAEVKKPGSSVKVSCKASGGTFSSYAISWVRQAPGQGLEWMGGIIPISGTANYAQKFQGRVTITADESTSTAYMELSSLRSEDTAVYYCARTQEYTLFDIWGQGTMVTVSS VL: EIVLTQSPATLSLSPGERATLSCRASQSVSSYLAWFQQKPGQAPRLLIYDASNRATGIPARFSGSGSGTDFTLTISSLEPEDFAVYYCQQDFHWPITFGGGTKVEIK . Is its Binding to CT26-TREM2 MFI strictly less than 2000 MFI? y

Bench note: check whether Ab52 (antibody, V domains shown, benchmark anti-TREM2 antibody from WO2016023019A2) VH: QVQLVQSGAEVKKPGASVKVSCKASGYTFTSYYIHWVRQAPGQGLEWMGIINPSGGSTSYAQKFQGRVTMTRDTSTSTVYMELSSLRSEDTAVYYCAREADDSSGYPLGLDVWGQGTMVTVSS VL: EIVMTQSPATLSVSPGERATLSCRASQSVSSNLAWYQQKPGQAPRLLIYGASTRATGIPARFSGSGSGTEFTLTISSLQSEDFAVYYCQQVNSLPPTFGGGTKVEIK shows Binding to CT26-TREM2 MFI below 2000 MFI n

Threshold test, Binding to CT26-TREM2 MFI < 2000 MFI: EOS006175 (antibody, V domains shown) VH: QVQLQESGPGLVKPSGTLSLTCAVSGGSISSSNWWSWVRQPPGKGLEWIGEIYHSGSTNYNPSLKSRVTISVDKSKNQFSLKLSSVTAADTAVYYCARDTKYWGGMDVWGQGTTVTVSS VL: DIQMTQSPSSLSASVGDRVTITCQASQDISNYLNWYQQKPGKAPKLLIYDASNLATGVPSRFSGSGSGTDFTFTISSLQPEDIATYYCQQYVEAPTFGGGTKVEIK y

I'd appreciate it if you could check whether EOS006164 (antibody, V domains shown) VH: EVQLVESGGGLVQPGRSLRLSCTASGFTFDDYTMSWFRQAPGKGLEWVGFIGSKAYSATTEYTASVKGRFTISRDGSKSIAYLQMNSLKTEDTAVYYCARGKRYSYTYWTPAFDVWGQGTMVTVSS VL: DIQMTQSPSSLSASVGDRVTITCQASQDITNYLNWYQQKPGKAPKLLIYDASNLETGVPSRFSGSGSGTDFTFTISSLQPEDIATYYCQEYDSYITFGGGTKVEIK has Binding to CT26-TREM2 MFI smaller than 2000 MFI. n
